Target: T1, YA peptide (Octet assay of PS557 variants)
T1 construct: Peptide coated on the Octet sensor
Experiment: Octet (BLI), peptide on sensor, response after 200 s association
Excerpt: In the high-throughput assay, Octet sensors are coated with the peptide of interest and dipped in buffer containing the purified protein. An approximation of relative binding can be obtained by comparing the response after 200 seconds for each protein. Each protein has approximately the same molecular mass and is used at the same concentration, so ranking the proteins by response level in this assay gives an approximation of which proteins have improved binding. […]
measure.name: Octet response (nm)
Report only the number, with the unit nm understood.

Worked set:
PS824 (designed binder, Variant of PS557) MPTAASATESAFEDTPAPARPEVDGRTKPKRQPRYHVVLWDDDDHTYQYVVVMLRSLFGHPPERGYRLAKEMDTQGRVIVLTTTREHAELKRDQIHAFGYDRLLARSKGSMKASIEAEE	1.31
PS852 (designed binder, Variant of PS557) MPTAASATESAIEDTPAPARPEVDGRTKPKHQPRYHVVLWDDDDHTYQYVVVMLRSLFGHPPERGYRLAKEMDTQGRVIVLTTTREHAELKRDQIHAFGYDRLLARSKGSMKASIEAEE	0.177

Octet response reading for PS833 (designed binder, Variant of PS557) MPTAASATESAIEDTPAPARPVVDGRTKPKRQPRYHVVLWDDDDHTYQYVVVMLQSLFGHPPERGYRLAKEMDTQGRVIVLTTTREHAELKRDQIHAFGYDRLLARSKGSMKASIEAEE : 0.117

Octet response reading for PS557 (other, Natural ClpS parent protein; also called WT; wild-type protein) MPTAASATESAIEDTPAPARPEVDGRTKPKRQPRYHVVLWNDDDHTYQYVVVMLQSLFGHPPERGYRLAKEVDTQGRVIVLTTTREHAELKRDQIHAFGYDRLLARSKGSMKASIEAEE : 0.0431
